All figures here come from patent US9695154B2.

testSystem: recombinant human SAE enzyme (Homo sapiens)
Sequence (Q9UBT2 whole entry): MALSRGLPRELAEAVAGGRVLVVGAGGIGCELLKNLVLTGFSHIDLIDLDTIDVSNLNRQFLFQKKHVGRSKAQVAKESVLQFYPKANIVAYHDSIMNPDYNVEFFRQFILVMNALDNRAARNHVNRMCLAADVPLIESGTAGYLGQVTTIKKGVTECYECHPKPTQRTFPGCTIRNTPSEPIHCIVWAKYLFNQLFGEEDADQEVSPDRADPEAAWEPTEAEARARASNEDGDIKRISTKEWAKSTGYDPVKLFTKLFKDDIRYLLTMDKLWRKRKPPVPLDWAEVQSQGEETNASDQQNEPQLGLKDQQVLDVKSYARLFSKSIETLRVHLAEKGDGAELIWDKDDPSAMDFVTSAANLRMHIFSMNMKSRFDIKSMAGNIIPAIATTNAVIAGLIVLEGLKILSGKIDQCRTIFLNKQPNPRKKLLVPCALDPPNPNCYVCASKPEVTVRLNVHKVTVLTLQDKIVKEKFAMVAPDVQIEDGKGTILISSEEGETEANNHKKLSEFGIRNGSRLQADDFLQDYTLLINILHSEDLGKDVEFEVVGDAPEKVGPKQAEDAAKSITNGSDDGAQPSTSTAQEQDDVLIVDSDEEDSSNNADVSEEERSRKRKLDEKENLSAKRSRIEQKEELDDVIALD
Sequence (Q9UBE0 whole entry partner): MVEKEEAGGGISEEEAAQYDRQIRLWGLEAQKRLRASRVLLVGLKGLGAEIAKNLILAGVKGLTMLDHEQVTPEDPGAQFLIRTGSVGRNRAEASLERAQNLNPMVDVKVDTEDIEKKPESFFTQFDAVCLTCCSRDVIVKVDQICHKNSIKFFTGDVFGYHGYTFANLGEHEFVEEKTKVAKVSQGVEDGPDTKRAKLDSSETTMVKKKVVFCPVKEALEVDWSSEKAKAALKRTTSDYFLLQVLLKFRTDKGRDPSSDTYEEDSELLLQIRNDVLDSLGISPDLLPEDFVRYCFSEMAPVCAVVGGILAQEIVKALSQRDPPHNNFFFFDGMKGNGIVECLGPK
assayMethodText: SAE HTRF Enzyme Assay
experimentalContext: class symbols A-C
pIC50: −log10 of the molar value.
reportedProperty: pIC50

CSCn1ccc(C(=O)c2cncnc2N[C@@H]2C[C@H](COS(N)(=O)=O)[C@@H](O)C2)n1    6.00 to 7.00

# input molecule: CC1(C)CCC(Cn2ccc(C(=O)c3cncnc3N[C@@H]3C[C@H](COS(N)(=O)=O)[C@@H](O)[C@@H]3F)c2)O1 (mixture of isomers) ; wanted: its pIC50
7.00 to 8.00

Quick check: pIC50 of C=CCn1ccc(C(=O)c2cncnc2N[C@@H]2C[C@H](COS(N)(=O)=O)[C@@H](O)C2)c1 ?
7.00 to 8.00

Quick one: pIC50 of NS(=O)(=O)OC[C@H]1C[C@@H](Nc2ncncc2C(=O)c2ccn(Cc3ccc(F)c(I)c3)n2)C[C@@H]1O ?
> 8.00

Record request: pIC50 value, item COC(C)c1cc(C(=O)c2cncnc2N[C@@H]2C[C@H](COS(N)(=O)=O)[C@@H](O)C2)nn1Cc1cccc(Br)c1 (single isomer, unassigned) [Compound I-369a]
> 8.00

pIC50 lookup needed for CC(c1ccc(Cl)o1)n1ccc(C(=O)c2cncnc2N[C@@H]2C[C@H](COS(N)(=O)=O)[C@@H](O)C2)n1 (single isomer, unassigned) [Compound I-79] , thanks.
> 8.00
